Origin of the recorded values: paper PMC8434134

Test system: MRC-5 cells
Assay: MTT cytotoxicity assay, non-cancer MRC-5
Type: cell-based
Conditions: Homo sapiens, MRC5, 24 h treatment, mean of n = 3, non-cancer cells
readout.type: IC50 (µM)
State just the number; it will be interpreted in µM.

>>> measured_value("O=c1cc(-c2ccc(Oc3c(-c4ccc(O)cc4)oc4cc(O)cc(O)c4c3=O)cc2)oc2cc(O)cc(O)c12 [Compound 5, delicaflavone]")
36.8

Exam item: What does the record list as IC50 for Cc1c(O)cc2c(c1O)C(=O)C[C@@H](c1ccc(Oc3c(-c4ccc(O)cc4)oc4cc(O)cc(O)c4c3=O)cc1)O2 [Compound 4] ?
Marked response: 58.2

====

Recorded IC50 by entry
Tested on: MRC-5 cells
Assay: MTT cytotoxicity assay, non-cancer MRC-5
Type: cell-based
Details: Homo sapiens, MRC5, 24 h treatment, mean of n = 3, non-cancer cells
Method: To evaluate the anti-NSCLC activity of compounds 1–5, we tested their inhibitory effect on the proliferation of two NSCLC cell lines (A549 and H1299) as well as human normal embryonic lung cell line MRC-5 by the MTT assay using Cis-platin (DDP) as a positive control. […] Cytotoxicity of test compounds was assessed by the MTT assay. […]

>>> measured_value("COc1cc(O)c2c(=O)c(Oc3ccc(-c4cc(=O)c5c(O)cc(O)cc5o4)cc3)c(-c3ccc(O)cc3)oc2c1")
"> 100 µM"
>>> measured_value("Cc1c(O)cc2oc(-c3ccc(Oc4c(-c5ccc(O)cc5)oc5cc(O)cc(O)c5c4=O)cc3)cc(=O)c2c1O")
"> 100 µM"

Let us move to another entry and its IC50.
Exam item: Give the measured IC50 of O=C1C[C@@H](c2ccc(Oc3c(-c4ccc(O)cc4)oc4cc(O)cc(O)c4c3=O)cc2)Oc2cc(O)cc(O)c21 [Compound 1, (2″S)-2″,3″-dihydrodelicaflavone] .
Marked response: > 100 µM
